The reported numbers originate from the RNAGym collection of RNA variant scans (doi:10.1093/nar/gkz1192).

B1: CPEB3 Ribozyme (parent)
chain: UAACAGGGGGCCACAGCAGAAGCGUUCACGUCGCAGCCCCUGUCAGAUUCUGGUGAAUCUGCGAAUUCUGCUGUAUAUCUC

# Variants of: B1
# ASSAY OVERVIEW: self-cleavage, relative activity (ratio to wild type); higher = more cleavage; in vitro, sequencing
Would you mind classing the entries by self-cleavage? Ranges: low end: < 0.2; middle: ≥ 0.2 and < 0.4; high end: ≥ 0.4

* C39G C50G | low end
* U26C C71U | middle
* C59U U74A | high end
* A15U C40U | high end
* G24A G52A | middle
* U25C A56U | middle
* A45G G61A | high end
* G19C A56U | low end
